Each record here notes measured Vd.
Assay: In vivo pharmacokinetic study, dog
Conditions: dog, blood, intravenous; read-out: Vss
Protocol: In vivo pharmacokinetic studies were conducted in mouse, rat, dog, or cynomolgus monkey to determine clearance, oral exposure and bioavailability (% F). […] Non-compartmental pharmacokinetic parameters were determined using Phoenix Winnonlin 6.1 (Pharsight, Mountain View, Calif.). Bioavailability of the oral formulation of each compound were calculated as the ratio of the oral dose normalized AUCinf to the intravenous dose normalized AUCinf. […]
value_kind: Vd (L/kg)

# sample_smiles, value_kind, value
rows = [
    ("CNC(=O)c1c(-c2ccc(F)cc2)oc2cc(N(Cc3cc(F)c4c(c3)COB4O)S(C)(=O)=O)c(C3CC3)cc12", "Vd", 3.5),
    ("CNC(=O)c1c(-c2ccc(F)cc2)oc2cc(N(c3cc(Cl)c4c(c3)COB4O)S(C)(=O)=O)c(C3CC3)cc12", "Vd", 0.6),
    ("CNC(=O)c1c(-c2ccc(F)cc2)oc2cc(N(Cc3ccc(B(O)O)c(F)c3)S(C)(=O)=O)c(C3CC3)cc12", "Vd", 3.6),
    ("CNC(=O)c1c(-c2ccc(F)cc2)oc2cc(N(c3ccc(B(O)O)c(Cl)c3)S(C)(=O)=O)c(C3CC3)cc12", "Vd", 1.6),
]
